Assignment: determine reported cytotoxicity at 70.5 h for the given molecules.
ASSAY_SUMMARY: Human HepG2 cell viability assay in 384 well format
Type: toxicity, cell-based
Design: dose 125 nL, time 70.5 hour; concentration not given beside the values
CONDITION_DESCRIPTION: HepG2 cells, read-out: Inhibition
Express the result in % but write the number alone.

Task: # return recorded cytotoxicity at 70.5 h for entry Nc1nc2nc(C3CCCN(C(=O)c4cncs4)C3)ccc2s1 (centres undefined)
Output: 0.556

Task: # return recorded cytotoxicity at 70.5 h for entry c1csc(-c2noc(C3CCCOC3)n2)c1 (centres undefined)
Output: -2.62

Task: # return recorded cytotoxicity at 70.5 h for entry CC1CC2(CCN(C(=O)c3c[nH]cn3)CC2)c2ccccc21 (centres undefined)
Output: -8.21

Task: # return recorded cytotoxicity at 70.5 h for entry CC(C)c1n[nH]c(C2CN(C(=O)COCC(F)(F)F)CCO2)n1 (centres undefined)
Output: -12.9

Task: # return recorded cytotoxicity at 70.5 h for entry COCc1c(Cl)cccc1NC(=O)NCc1cccc(N(C)C)n1
Output: 1.02

Task: # return recorded cytotoxicity at 70.5 h for entry COCCn1ccnc1C1CCCN(C(=O)CSc2nnc(C)o2)C1 (centres undefined)
Output: -5.99

Task: # return recorded cytotoxicity at 70.5 h for entry Cn1cccc1CN1CCC2(CCCN(C(=O)c3cccnc3)C2)CC1
Output: -2.44

Task: # return recorded cytotoxicity at 70.5 h for entry CCn1nc(C)c(CNC(=O)c2nnc3ccc(Cl)cc3n2)c1C
Output: 0.121

Task: # return recorded cytotoxicity at 70.5 h for entry CCOC(C)c1nc(Cn2cc(-n3cccc3)cn2)cs1 (centres undefined)
Output: -10.1

Task: # return recorded cytotoxicity at 70.5 h for entry O=C(c1cccnc1Oc1ccc(Cl)cc1)N1CC[C@@H](O)C1
Output: 24.9

Task: # return recorded cytotoxicity at 70.5 h for entry O=C(O)c1cccn1-c1ccc2c(c1)OCCO2
Output: -9.54

Task: # return recorded cytotoxicity at 70.5 h for entry NC(=O)Cn1ccc(O)c(Cc2ccc(Cl)cc2Cl)c1=O
Output: 3.22

Task: # return recorded cytotoxicity at 70.5 h for entry CSCC(CCO)NC(=O)Nc1ccc(C)cc1Br (centres undefined)
Output: 0.54

Task: # return recorded cytotoxicity at 70.5 h for entry CCN(C(=O)CNC1CCc2ncnn2C1)C1=CCCCC1 (centres undefined)
Output: 4.5

Task: # return recorded cytotoxicity at 70.5 h for entry O=C([C@H]1CN(Cc2ccoc2)C[C@H]2OCC[C@@H]12)N1CCCCO1
Output: -4.73

Task: # return recorded cytotoxicity at 70.5 h for entry CC(Cn1cccn1)NS(=O)(=O)Cc1ccccc1 (centres undefined)
Output: 24.2

Task: # return recorded cytotoxicity at 70.5 h for entry CCOc1c(CNC2CSCCSC2)cccc1OC
Output: 20.2

Task: # return recorded cytotoxicity at 70.5 h for entry Cc1nc(N2CCCCC2)ncc1-c1cc(O)[nH]n1
Output: -3.47

Task: # return recorded cytotoxicity at 70.5 h for entry CN(c1ccc(CNC(=O)c2ccc(O)nc2)cc1)C1CCCCC1
Output: 0.503

Task: # return recorded cytotoxicity at 70.5 h for entry CNc1cnc(CC2COCCN(Cc3cccc(C)n3)C2)cn1 (centres undefined)
Output: -2.94

Task: # return recorded cytotoxicity at 70.5 h for entry Cc1cccc(CN2CC3(CCN(Cc4ccoc4)CC3)OCC2=O)n1
Output: 17.7

Task: # return recorded cytotoxicity at 70.5 h for entry CC(=O)c1ccc(CNC(=O)c2c(C)cc(C)cc2C)nc1C
Output: 3.34

Task: # return recorded cytotoxicity at 70.5 h for entry Cc1ccc(C(=O)Nc2ccc(OC3CCN(C)CC3)cc2)c(C)c1
Output: -5.87

Task: # return recorded cytotoxicity at 70.5 h for entry CNC(=O)[C@H]1C[C@@H]2CN(S(=O)(=O)c3ccc(OC)cc3)C[C@@H]2N1C
Output: -1.32

* * *

ASSAY_SUMMARY: Human HepG2 cell viability assay in 384 well format
Format: toxicity, cell-based
Design: dose 125 nL, time 70.5 hour; concentration not given beside the values
CONDITION_DESCRIPTION: HepG2 cells, read-out: Inhibition
READOUT_TYPE: cytotoxicity at 70.5 h (%)
Express the result in % but write the number alone.

Task: # return recorded cytotoxicity at 70.5 h for entry CCCN1CCC(Cc2noc(-c3[nH]cnc3C)n2)CC1
Output: 6.08

Task: # return recorded cytotoxicity at 70.5 h for entry O=C(NCCn1nc(C2CCNC2)c2cccnc21)c1ccccn1 (configuration not stated)
Output: -2.16

Task: # return recorded cytotoxicity at 70.5 h for entry Cc1cc(C)nc(N2CCC(c3cncc(-n4ccnc4)n3)CC2)n1
Output: -6.63

Task: # return recorded cytotoxicity at 70.5 h for entry COCCn1c2c(ccc1=O)CC(NS(C)(=O)=O)CC2 (configuration not stated)
Output: 16

Task: # return recorded cytotoxicity at 70.5 h for entry COCCNc1ccccc1CNC(=O)NCc1ccc(C)s1
Output: -6.41

Task: # return recorded cytotoxicity at 70.5 h for entry COc1ncnc2c1CCN(Cc1cccc(C)n1)CC2
Output: 5.99

Task: # return recorded cytotoxicity at 70.5 h for entry Cc1nc2cc(=O)[nH]n2c(C)c1CC(=O)NCc1ccc(C#N)cc1
Output: -0.462

Task: # return recorded cytotoxicity at 70.5 h for entry CC(O)CN1CCN(C(=O)c2ccnc(N(C)C)c2)CC1 (configuration not stated)
Output: 14.1

Task: # return recorded cytotoxicity at 70.5 h for entry Cc1nc(C)n(CC2CN(CCc3ccccn3)CCO2)n1 (configuration not stated)
Output: -7.39

Task: # return recorded cytotoxicity at 70.5 h for entry COc1ccc(Cl)cc1NCC(=O)NCCNc1ncccn1
Output: -2.38

Task: # return recorded cytotoxicity at 70.5 h for entry COc1cccc(COCC(=O)N2CCCN(CC(N)=O)CC2)c1
Output: -9.55

Task: # return recorded cytotoxicity at 70.5 h for entry O=C(c1cc2ccccc2s1)N1CCC(C(=O)O)(n2cccn2)CC1
Output: -4.38

* * *

ASSAY_SUMMARY: Human HepG2 cell viability assay in 384 well format
Assay type: toxicity, cell-based
Parameters: dose 125 nL, time 70.5 hour; concentration not given beside the values
CONDITION_DESCRIPTION: HepG2 cells, read-out: Inhibition
READOUT_TYPE: cytotoxicity at 70.5 h (%)
Express the result in % but write the number alone.

Task: # return recorded cytotoxicity at 70.5 h for entry CC(=O)Nc1ccc2nc(CN(C)Cc3noc(C)n3)ccc2c1
Output: -4.56

Task: # return recorded cytotoxicity at 70.5 h for entry CS(=O)(=O)N1CCCC1c1cccc(Cc2ccccc2F)n1 (configuration not stated)
Output: -6.97

Task: # return recorded cytotoxicity at 70.5 h for entry Cc1cccc2c1ccn2CC(=O)NC[C@@H]1CCCN2CCCC[C@H]12
Output: -6.63

Task: # return recorded cytotoxicity at 70.5 h for entry O=C(c1ccc(-n2ccnc2)nn1)N1CCCCC1Cn1cccn1 (configuration not stated)
Output: -5.22

Task: # return recorded cytotoxicity at 70.5 h for entry Cc1cc(S(=O)(=O)NCC(C)(O)CN(C)C)c(F)cc1F (configuration not stated)
Output: -9.95

Task: # return recorded cytotoxicity at 70.5 h for entry Cc1cc(C)n(C2CCN(C(=O)CN3C(=O)CSc4ccccc43)C2)n1 (configuration not stated)
Output: 30.3

Task: # return recorded cytotoxicity at 70.5 h for entry COc1nccc(N2CC[C@H](N3CCOCC3)[C@H](CCCO)C2)c1C#N
Output: -7.48

Task: # return recorded cytotoxicity at 70.5 h for entry CCCn1nc2c(cc1=O)CN(CC1CCCCO1)CC2 (configuration not stated)
Output: -1.08

Task: # return recorded cytotoxicity at 70.5 h for entry CCCN1CC2(CCN(C)CC2)CC1C(=O)NCCn1cccn1 (configuration not stated)
Output: -6

Task: # return recorded cytotoxicity at 70.5 h for entry CNS(=O)(=O)c1ccsc1C(=O)OC
Output: -5.92

Task: # return recorded cytotoxicity at 70.5 h for entry CCOC(=O)CN(C)C1CCc2ccccc21 (configuration not stated)
Output: 26.7

Task: # return recorded cytotoxicity at 70.5 h for entry CS(=O)(=O)N1CCCC1C(=O)Nc1cnc2n1CCCC2 (configuration not stated)
Output: -20.4

* * *

Assignment: determine reported cytotoxicity at 70.5 h for the given molecules.
ASSAY_SUMMARY: Human HepG2 cell viability assay in 384 well format
Assay type: toxicity, cell-based
Set-up: dose 125 nL, time 70.5 hour; concentration not given beside the values
CONDITION_DESCRIPTION: HepG2 cells, read-out: Inhibition
Express the result in % but write the number alone.

Task: # return recorded cytotoxicity at 70.5 h for entry COCC(=O)N1CCC2(CC1)CN(c1ncccn1)CCO2
Output: -10.1

Task: # return recorded cytotoxicity at 70.5 h for entry O=C(Cn1nc2c(cc1=O)CCCC2)N[C@@H](Cc1ccccc1)C(=O)O
Output: 6.84

Task: # return recorded cytotoxicity at 70.5 h for entry CCCc1ccc(S(=O)(=O)NC(=O)CCc2cscn2)cc1
Output: 4.19

Task: # return recorded cytotoxicity at 70.5 h for entry O=C(CCc1nc(Cl)n[nH]1)N1C[C@@H](CN2CCCCCC2)[C@@H](CO)C1
Output: -4.12

Task: # return recorded cytotoxicity at 70.5 h for entry Cc1cc(C)c(S(=O)(=O)Nc2c(C)nc(N3CCCC3)nc2C)cc1C
Output: 2.48

Task: # return recorded cytotoxicity at 70.5 h for entry COC1CN(C(=O)Cc2cccs2)CCC(=O)N(C)c2ccccc21 (stereo not drawn)
Output: 2.17

Task: # return recorded cytotoxicity at 70.5 h for entry Cc1nc(C)n(C2CCCN(C(=O)c3ccc(F)c(F)c3)C2)n1 (stereo not drawn)
Output: -2.21

Task: # return recorded cytotoxicity at 70.5 h for entry CC(C)(N)c1cn(C2CCN(C(=O)CCC3CCCCC3)CC2)nn1
Output: -5.04

Task: # return recorded cytotoxicity at 70.5 h for entry COc1ccsc1C(=O)Nc1cc(Br)c(=O)n(C)c1
Output: -4.19

Task: # return recorded cytotoxicity at 70.5 h for entry Cc1ccc2nc(C(=O)N3CCCC[C@]4(C)NC(=O)CCC[C@H]34)cn2c1
Output: -4.04

Task: # return recorded cytotoxicity at 70.5 h for entry Cc1nc(C)c(C(=O)NCCOc2ccc(C(F)(F)F)cn2)o1
Output: -3.32

Task: # return recorded cytotoxicity at 70.5 h for entry CC(C)c1nc(C2CCCN2CC(=O)Nc2nncs2)no1 (stereo not drawn)
Output: -1.18

Task: # return recorded cytotoxicity at 70.5 h for entry CC(C)N(C)S(=O)(=O)c1ccc2c(c1)CCN(C(=O)c1cscn1)C2
Output: -20.3

Task: # return recorded cytotoxicity at 70.5 h for entry COc1ccc(C(=O)C2CCCN(Cc3ccon3)C2)c(OC)c1 (stereo not drawn)
Output: -10.4

Task: # return recorded cytotoxicity at 70.5 h for entry COCCN1CC2(CCCN(C(=O)NCc3ccccc3)C2)CCC1=O (stereo not drawn)
Output: 0.704

Task: # return recorded cytotoxicity at 70.5 h for entry O=c1c2cnc(N3CCCCC3)nc2ccn1-c1ccccc1
Output: 19

Task: # return recorded cytotoxicity at 70.5 h for entry OC1(CN2CCCC2)COCCN(c2ncnc3[nH]cnc23)C1 (stereo not drawn)
Output: -0.684

Task: # return recorded cytotoxicity at 70.5 h for entry COc1cccc(-n2c(C)cc(C(=O)NC(C)(C)C(N)=O)c2C)c1
Output: -15.2

Task: # return recorded cytotoxicity at 70.5 h for entry CC(CO)NC(=O)Nc1ccc(COC2CCCC2)cc1 (stereo not drawn)
Output: -2.03

Task: # return recorded cytotoxicity at 70.5 h for entry CN(Cc1cnn(C)c1)C(=O)CN1CCCC(Cn2cncn2)C1 (stereo not drawn)
Output: 48

Task: # return recorded cytotoxicity at 70.5 h for entry Cn1c(=O)oc2cc(Nc3ncc(C#N)cc3Cl)ccc21
Output: -4.36

Task: # return recorded cytotoxicity at 70.5 h for entry CCn1cnnc1CNC(=O)N1CCN(CCc2ccccc2)CC1
Output: -2.4

Task: # return recorded cytotoxicity at 70.5 h for entry COCCN(Cc1nc2c(cnn2C)c(=O)[nH]1)Cc1ccco1
Output: -7.8
